Tested on: HS 578T breast
MEASUREMENT_PROTOCOL: NCI tumour cell line growth inhibition, 48 h
Recorded GI50 for the following molecules
REPORTED_ENDPOINT: GI50

- Cn1cc(-c2cc(N)n3nc(-c4c[nH]c5ccc(F)cc45)cc3n2)c2cc(Br)cnc21: > 100000 nM
- COc1ccccc1Nc1nnc(-c2c[nH]c3ccccc23)o1: 2200 nM
- COc1ccc(C(=O)Nc2ccc(-c3ccc4c(c3)NC(=O)/C4=C\c3ccc[nH]3)cc2)cc1: 5820 nM
- COc1ccc2c(c1)c(-c1cc3nc(-c4cn(C)c5ncc(Br)cc45)cc(N)n3n1)cn2C: 2290 nM

###

Tested on: PC-3 prostate
MEASUREMENT_PROTOCOL: NCI tumour cell line growth inhibition, 48 h
REPORTED_ENDPOINT: TGI (µM)

* O=C(Nc1cccc(-n2cnc3cc(-c4ccc(O)cc4)ccc32)c1)C1CC1 | 53.2
* C=C1CCC2C3(C)COC(c4ccccc4F)OC3CCC2(C)C1C/C=C1/C(=O)OCC1O (centres undefined) | 14.6

###

Test system: HCC-2998 colon
MEASUREMENT_PROTOCOL: NCI tumour cell line growth inhibition, 48 h
REPORTED_ENDPOINT: TGI (µM)

* COc1ccc2c(c1)c(-c1cc3nc(-c4cn(C)c5ncc(Br)cc45)cc(N)n3n1)cn2C | 3.16
* COc1ccccc1Nc1nnc(-c2c[nH]c3ccccc23)o1 | 16.2

###

Test system: CAKI-1 renal
MEASUREMENT_PROTOCOL: NCI tumour cell line growth inhibition, 48 h
REPORTED_ENDPOINT: GI50

• Cn1cc(-c2cc(N)n3nc(-c4c[nH]c5ccc(F)cc45)cc3n2)c2cc(Br)cnc21 = 6.43 µM
• COc1ccc(C(=O)Nc2ccc(-c3ccc4c(c3)NC(=O)/C4=C\c3ccc[nH]3)cc2)cc1 = > 100 µM
• COc1ccccc1Nc1nnc(-c2c[nH]c3ccccc23)o1 = 0.861 µM
• C=C1CCC2C3(C)COC(c4ccccc4F)OC3CCC2(C)C1C/C=C1/C(=O)OCC1O (centres undefined) = 3.84 µM

###

Reported TGI by item:
Tested on: RPMI-8226 leukemia
MEASUREMENT_PROTOCOL: NCI tumour cell line growth inhibition, 48 h
REPORTED_ENDPOINT: TGI (µM)

* O=C(Nc1cccc(-n2cnc3cc(-c4ccc(O)cc4)ccc32)c1)C1CC1 | 13.6
* Cn1cc(-c2cc(N)n3nc(-c4c[nH]c5ccc(F)cc45)cc3n2)c2cc(Br)cnc21 | 48.5
* C=C1CCC2C3(C)COC(c4ccccc4F)OC3CCC2(C)C1C/C=C1/C(=O)OCC1O (centres undefined) | 7.35

###

Test system: MDA-MB-468 breast
MEASUREMENT_PROTOCOL: NCI tumour cell line growth inhibition, 48 h; in the data active = GI50 below about 0.43 µM; inactive = the rest
Outcomes: True (active), False (inactive)

• COc1ccc(C(=S)N(C)NC(=O)CC(=O)NN(C)C(=S)c2ccc(OC)cc2)cc1 = False
• C=C1CCC2C3(C)COC(c4ccccc4F)OC3CCC2(C)C1C/C=C1/C(=O)OCC1O (stereo not given) = False
• O=C(Nc1cccc(-n2cnc3cc(-c4ccc(O)cc4)ccc32)c1)C1CC1 = True
• COc1cc(OC)c(/C=C/c2cc[n+](C)c3ccccc23)c(OC)c1 = True
• COc1ccc(/C=C2\COc3ccc(O)c(O)c3C2=O)cc1 = False
• COc1cc(/C=C/C(=O)c2ccccc2)cc(OC)c1OC = False
• COc1cc(-c2nn(-c3cccc(NC(=O)Nc4cccc(C(F)(F)F)c4)c3)cc2-c2ccncc2)ccc1Cl = True
• C#CCCCN(CCNc1ccnc2cc(Cl)ccc12)C(=O)CCC(=O)O[C@@H]1O[C@@H]2OC3(C)CC[C@H]4[C@H](C)CC[C@@H]([C@H]1C)[C@@]24OO3 = False
• Cc1ccc(C2=NN(c3ccc(S(C)(=O)=O)cc3)C(=O)CC2)cc1 = False
• Cc1cc(=O)n2nnc3c4ccccc4ccc3n12 = False

###

System: HT29 colon
MEASUREMENT_PROTOCOL: NCI tumour cell line growth inhibition, 48 h
REPORTED_ENDPOINT: GI50

* C#CCCCN(CCNc1ccnc2cc(Cl)ccc12)C(=O)CCC(=O)O[C@@H]1O[C@@H]2OC3(C)CC[C@H]4[C@H](C)CC[C@@H]([C@H]1C)[C@@]24OO3 | 0.701 µM
* COc1ccc(C(=O)Nc2ccc(-c3ccc4c(c3)NC(=O)/C4=C\c3ccc[nH]3)cc2)cc1 | 4.23 µM
* COc1ccccc1Nc1nnc(-c2c[nH]c3ccccc23)o1 | 0.634 µM
* O=C(Nc1cccc(-n2cnc3cc(-c4ccc(O)cc4)ccc32)c1)C1CC1 | 0.34 µM

###

System: MDA-MB-468 breast
MEASUREMENT_PROTOCOL: NCI tumour cell line growth inhibition, 48 h
Label scheme for TGI: lower than 4 µM is not satisfied, 4 µM and above is satisfied.

• C#CC[C@@H]1C[C@]2(C)[C@H]3CC[C@@H]4[C@H]5C(C(=C)C)CC[C@]5(C(=O)NCCCCN)CC[C@@]4(C)[C@]3(C)CC[C@H]2C(C)(C)[C@H]1OC(C)=O (some centres not stated) = not satisfied
• CCc1ccc(C(=O)/C=C/C23c4ccccc4C(c4ccccc42)C2C(=O)NC(=O)C23)cc1 (configuration not stated) = satisfied
• COc1cc(C2CC(c3cccc(Nc4ccncc4)c3)=NN2c2ccccc2)cc(OC)c1OC (configuration not stated) = not satisfied
• O=C1OCC2=C1C(c1ccc3c(c1)OCO3)c1cc3c(cc1O2)OCO3 (configuration not stated) = satisfied
• C=C1CCC2C3(C)COC(c4ccccc4F)OC3CCC2(C)C1C/C=C1/C(=O)OCC1O (configuration not stated) = not satisfied
• CC(C)Oc1ccc(-c2nn([C@@H](C)c3oc4ccc(F)cc4c(=O)c3-c3cccc(F)c3)c3ncnc(N)c23)cc1F = satisfied
• COc1ccc2c(c1)c(-c1cc3nc(-c4cn(C)c5ncc(Br)cc45)cc(N)n3n1)cn2C = not satisfied
• Cc1ccc(C2=NN(c3ccc(S(C)(=O)=O)cc3)C(=O)CC2)cc1 = satisfied
• COc1ccc(C(=O)Nc2ccc(-c3ccc4c(c3)NC(=O)/C4=C\c3ccc[nH]3)cc2)cc1 = not satisfied
• CNCCCNc1nc2ccccc2c2c(=O)c3cc(F)ccc3sc12 = not satisfied
• CC(=O)Oc1cc(C(C)C)c(OCCN(C)C)cc1C = satisfied
• COc1cc(/C=C/C(=O)c2ccccc2)cc(OC)c1OC = satisfied

###

Tested on: RPMI-8226 leukemia
MEASUREMENT_PROTOCOL: NCI tumour cell line growth inhibition, 48 h
REPORTED_ENDPOINT: GI50

* O=C(Nc1cccc(-n2cnc3cc(-c4ccc(O)cc4)ccc32)c1)C1CC1 | 0.615 µM
* COc1ccc2c(c1)c(-c1cc3nc(-c4cn(C)c5ncc(Br)cc45)cc(N)n3n1)cn2C | 3.32 µM
* Cn1cc(-c2cc(N)n3nc(-c4c[nH]c5ccc(F)cc45)cc3n2)c2cc(Br)cnc21 | 5.67 µM
* COc1ccccc1Nc1nnc(-c2c[nH]c3ccccc23)o1 | 2.25 µM

###

Let's look at some compounds and their measured GI50.
System: HCC-2998 colon
MEASUREMENT_PROTOCOL: NCI tumour cell line growth inhibition, 48 h
REPORTED_ENDPOINT: GI50

- C=C1CCC2C3(C)COC(c4ccccc4F)OC3CCC2(C)C1C/C=C1/C(=O)OCC1O (centres undefined): 5.12 µM
- COc1ccc(C(=O)Nc2ccc(-c3ccc4c(c3)NC(=O)/C4=C\c3ccc[nH]3)cc2)cc1: 9.38 µM
- Cn1cc(-c2cc(N)n3nc(-c4c[nH]c5ccc(F)cc45)cc3n2)c2cc(Br)cnc21: 4.2 µM
- COc1ccccc1Nc1nnc(-c2c[nH]c3ccccc23)o1: 2.55 µM

###

System: HOP-92 NSCLC
MEASUREMENT_PROTOCOL: NCI tumour cell line growth inhibition, 48 h
REPORTED_ENDPOINT: GI50

* C#CCCCN(CCNc1ccnc2cc(Cl)ccc12)C(=O)CCC(=O)O[C@@H]1O[C@@H]2OC3(C)CC[C@H]4[C@H](C)CC[C@@H]([C@H]1C)[C@@]24OO3 | 0.581 µM
* O=C(Nc1cccc(-n2cnc3cc(-c4ccc(O)cc4)ccc32)c1)C1CC1 | 14.6 µM
* COc1ccccc1Nc1nnc(-c2c[nH]c3ccccc23)o1 | 4.55 µM
* COc1ccc(C(=O)Nc2ccc(-c3ccc4c(c3)NC(=O)/C4=C\c3ccc[nH]3)cc2)cc1 | 42.8 µM
